Origin of measurements: patent US20210380703A1

# system_under_test: human Fc (human)
# assay_notes: ELISA, negative control
readout_type: optical density (OD)
API: value field is a number in OD; no unit string.

// known answers, use as guide
369_E06 (antibody, V domains shown) VH: EVQLLESGGGLVQPGGSLRLSCAASGFTFSSYGMNWVRQAPGKGLEWVSGINYNGGYTSYADSVKGRFTISRDNSKNTLYLQMNSLRAEDTAVYYCARGANWHDTALDYWGQGTLVTVSS VL: DIQMTQSPSSLSASVGDRVTITCRASQSIISYLNWYQQKPGKAPKLVIYAATSRHSGVPSRFSGSGSGTDFTLTISSLQPEDFATYYCQQSYDSPLTFGGGTKVEIK = 0.306
374_D05 (antibody, V domains shown) VH: EVQLLESGGGLVQPGGSLRLSCAASGFTFDSYSMNWVRQAPGKGLEWVSGINYNSGYTGYADSVKGRFTISRDNSKNTLYLQMNSLRAEDTAVYYCARGANWHDTHLDYWGQGTLVTVSS VL: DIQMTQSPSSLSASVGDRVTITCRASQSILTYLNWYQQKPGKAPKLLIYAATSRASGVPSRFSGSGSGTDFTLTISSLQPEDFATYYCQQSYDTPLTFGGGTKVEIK = 0.171
369_B07 (antibody, V domains shown) VH: EVQLLESGGGLVQPGGSLRLSCAASGFTFDSYGMHWVRQAPGKGLEWVANINYNGGYKSYADSVKGRFTISRDNSKNTLYLQMNSLRAEDTAVYYCARAATWHDTHLDYWGQGTLVTVSS VL: DIQMTQSPSSLSASVGDRVTITCRASQSIVSYVNWYQQKPGKAPKLVIYAATSLASGVPSRFSGSGSGTDFTLTISSLQPEDFATYYCQQSYDLPLTFGGGTKVEIK = 0.319

Let us move to another entry and its optical density.
# input I have this binder here, 369_E09 (antibody, V domains shown) VH: EVQLLESGGGLVQPGGSLRLSCAASGFTFDSYSMNWVRQAPGKGLEWVSNINYNSGYKGYADSVKGRFTISRDNSKNTLYLQMNSLRAEDTAVYYCARSATWHDTHLDYWGQGTLVTVSS VL: DIQMTQSPSSLSASVGDRVTITCRASQSILSYLNWYQQKPGKAPKLVIYAATSRASGVPSRFSGSGSGTDFTLTISSLQPEDFATYYCQQSYDLPLTFGGGTKVEIK , and I need its recorded optical density.
# output 0.278
